- Test system: galium (catchweed bedstraw, Galium aparine)
- Method Notes: Test A greenhouse herbicide test, postemergence
- Type: in vivo
- Assay Conditions: 125 g ai/ha, 0 to 100 scale where 0 is no effect and 100 is complete control
Here the recorded Plant response rating, Galium is given for each entry.
Measure: Plant response rating, Galium

- Compound: "CCc1nn(C)c(=O)c(-c2c(C)oc3ccc(Cl)cc23)c1O"
  Assay Result: 20
- Compound: "CC(=O)Oc1c(C)nn(C)c(=O)c1-c1c(C)sc2ccc(Cl)cc12"
  Assay Result: 100
- Compound: "Cc1nn(C)c(=O)c(-c2c(Cl)n(C)c3ccccc23)c1O"
  Assay Result: 20
